experiment: in vivo; conditions: cynomolgus monkey, iv, 1 mg/kg
Description: Half life in cynomolgus monkey at 1 mg/kg, iv by LC-MS/MS analysis
metric.name: half-life (h)
Could you give me the number in h? Just the number is fine.

(Q) Would you kindly share the measured half-life for O=C(O[C@@H]1O[C@H](C(=O)O)[C@@H](O)[C@H](O)[C@H]1O)c1c[nH]c2cc(Cl)c(-c3ccc(C4(O)CCC4)cc3)cc12 ?
(A) 18

###

assay: in vitro; settings: dog, MDCK
Description: Apparent passive permeability of the compound in RRCK cells by FACS analysis
metric.name: Papp
In your response, the unit should come after the numeric value.

(Q) Would you kindly share the measured Papp for O=C(O[C@@H]1O[C@H](C(=O)O)[C@@H](O)[C@H](O)[C@H]1O)c1c[nH]c2cc(F)c(-c3ccc([C@@H]4CCCCO4)cc3)c(F)c12 ?
(A) 0.3 ×10⁻⁶ cm/s

(Q) Would you kindly share the measured Papp for O=C(O[C@@H]1O[C@H](C(=O)O)[C@@H](O)[C@H](O)[C@H]1O)c1c[nH]c2cc(Cl)c(-c3ccc(C4(O)CCC4)cc3)cc12 ?
(A) 0.6 ×10⁻⁶ cm/s

(Q) Would you kindly share the measured Papp for COc1nc(N(C)C)ccc1-c1cc2c(C(=O)O[C@@H]3O[C@H](C(=O)O)[C@@H](O)[C@H](O)[C@H]3O)c[nH]c2cc1Cl ?
(A) 0.3 ×10⁻⁶ cm/s

###

test: Half life in human primary hepatocytes at 10 uM; type: ADME, cell-based, Hepatocyte
metric.name: half-life at 10 µM

(Q) Would you kindly share the measured half-life at 10 µM for COc1nc(N(C)C)ccc1-c1cc2c(C(=O)O[C@@H]3O[C@H](C(=O)O)[C@@H](O)[C@H](O)[C@H]3O)c[nH]c2cc1Cl ?
(A) > 6.67 h

(Q) Would you kindly share the measured half-life at 10 µM for O=C(O[C@@H]1O[C@H](C(=O)O)[C@@H](O)[C@H](O)[C@H]1O)c1c[nH]c2cc(Cl)c(-c3ccc(C4(O)CCC4)cc3)cc12 ?
(A) > 6.67 h

###

target: AMP-activated protein kinase (AMPK) alpha-1/beta-1/gamma-1 (Homo sapiens, UniProt P54619+Q13131+Q9Y478); test: biochemical
Sequence (P54619 whole entry): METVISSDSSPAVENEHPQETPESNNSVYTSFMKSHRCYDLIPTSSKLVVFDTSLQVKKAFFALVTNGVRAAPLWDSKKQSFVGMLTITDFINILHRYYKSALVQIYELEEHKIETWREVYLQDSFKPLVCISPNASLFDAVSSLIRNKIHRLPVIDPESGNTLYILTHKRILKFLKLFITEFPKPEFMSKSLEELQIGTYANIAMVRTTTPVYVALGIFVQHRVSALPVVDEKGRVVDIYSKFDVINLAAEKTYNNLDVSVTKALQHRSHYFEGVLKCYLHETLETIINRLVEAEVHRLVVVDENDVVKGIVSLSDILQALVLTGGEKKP
Sequence (Q9Y478 whole entry): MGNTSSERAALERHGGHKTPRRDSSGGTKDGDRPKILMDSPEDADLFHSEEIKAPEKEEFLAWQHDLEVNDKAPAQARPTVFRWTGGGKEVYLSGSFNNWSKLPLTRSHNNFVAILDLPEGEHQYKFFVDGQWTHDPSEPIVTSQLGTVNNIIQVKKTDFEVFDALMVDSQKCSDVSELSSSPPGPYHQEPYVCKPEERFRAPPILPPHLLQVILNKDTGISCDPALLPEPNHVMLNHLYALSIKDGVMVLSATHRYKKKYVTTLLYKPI
Sequence (Q13131 whole entry): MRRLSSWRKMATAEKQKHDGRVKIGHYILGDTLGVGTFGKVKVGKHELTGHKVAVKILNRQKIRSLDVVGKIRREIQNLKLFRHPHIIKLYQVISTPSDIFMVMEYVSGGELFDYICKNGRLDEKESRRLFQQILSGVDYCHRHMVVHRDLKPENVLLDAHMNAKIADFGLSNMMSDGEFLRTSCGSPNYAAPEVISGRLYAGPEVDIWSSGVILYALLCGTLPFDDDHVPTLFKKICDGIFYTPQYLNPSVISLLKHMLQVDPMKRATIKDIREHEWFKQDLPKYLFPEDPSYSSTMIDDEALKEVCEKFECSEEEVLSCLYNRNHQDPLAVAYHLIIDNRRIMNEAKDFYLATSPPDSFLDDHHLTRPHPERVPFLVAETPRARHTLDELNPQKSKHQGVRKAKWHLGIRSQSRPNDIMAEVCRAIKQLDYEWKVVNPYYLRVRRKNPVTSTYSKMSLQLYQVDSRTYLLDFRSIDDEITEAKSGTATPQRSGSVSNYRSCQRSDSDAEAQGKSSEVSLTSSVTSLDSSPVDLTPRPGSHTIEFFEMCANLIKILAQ
Description: Binding affinity to Bap-tagged human AMPKalpha1beta1gamma1 expressed in Escherichia coli BL21 cells by SPR analysis
metric.name: Kd (nM)
Could you give me the number in nM? Just the number is fine.

(Q) Would you kindly share the measured Kd for O=C(O[C@@H]1O[C@H](C(=O)O)[C@@H](O)[C@H](O)[C@H]1O)c1c[nH]c2cc(F)c(-c3ccc([C@@H]4CCCCO4)cc3)c(F)c12 ?
(A) 198
